Biological target: CDK7 CCNH MNAT1 (human) (UniProt P50613+P51948+P51946)
Sequence (P50613 whole entry, looked up): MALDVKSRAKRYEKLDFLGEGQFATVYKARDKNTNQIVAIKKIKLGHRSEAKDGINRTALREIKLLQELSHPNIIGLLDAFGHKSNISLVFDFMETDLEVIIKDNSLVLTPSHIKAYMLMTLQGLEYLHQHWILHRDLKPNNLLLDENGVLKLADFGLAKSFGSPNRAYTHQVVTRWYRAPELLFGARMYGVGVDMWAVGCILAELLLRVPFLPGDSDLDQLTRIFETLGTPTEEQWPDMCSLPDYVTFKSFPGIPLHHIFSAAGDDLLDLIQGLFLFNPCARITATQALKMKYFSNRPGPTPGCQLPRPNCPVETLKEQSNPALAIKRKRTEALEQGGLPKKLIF
Sequence (P51946 whole entry, looked up): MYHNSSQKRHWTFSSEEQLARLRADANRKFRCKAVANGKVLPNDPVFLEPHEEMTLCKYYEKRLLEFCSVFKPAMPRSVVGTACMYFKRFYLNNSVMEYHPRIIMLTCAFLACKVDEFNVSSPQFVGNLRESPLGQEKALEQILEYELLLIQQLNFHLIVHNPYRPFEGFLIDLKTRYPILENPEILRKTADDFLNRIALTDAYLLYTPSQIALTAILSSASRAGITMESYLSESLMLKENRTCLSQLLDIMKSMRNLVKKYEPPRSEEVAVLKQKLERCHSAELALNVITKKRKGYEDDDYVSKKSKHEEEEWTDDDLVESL
Sequence (P51948 whole entry, looked up): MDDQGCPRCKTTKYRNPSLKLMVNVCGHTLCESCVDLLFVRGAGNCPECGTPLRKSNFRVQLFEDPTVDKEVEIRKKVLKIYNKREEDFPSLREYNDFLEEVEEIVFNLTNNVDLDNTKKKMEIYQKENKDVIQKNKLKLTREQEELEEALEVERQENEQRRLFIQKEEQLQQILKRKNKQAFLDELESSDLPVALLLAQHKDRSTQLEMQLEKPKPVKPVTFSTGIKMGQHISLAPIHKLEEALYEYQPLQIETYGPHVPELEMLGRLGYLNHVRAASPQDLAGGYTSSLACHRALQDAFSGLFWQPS
Experiment: radiometric filter-binding kinase assay, Kinase HotSpot
Settings: compound 0.5 µM; ATP 10 µM
MEASURED_PROPERTY: residual activity (%)
Express the result in % but write the number alone.

Exercise: Could you tell me which residual activity is on file for `O=C1NC(=O)c2c1c1c3ccccc3[nH]c1n1cncc21` ?
Key: 92.3

Exercise: Field request: residual activity | item: `O=C1Nc2ccc(Br)cc2/C1=C\c1cc2c([nH]1)CCCC2`
Key: 93.6

Exercise: For `COc1ccc(C(=O)Nc2sc3c(c2C(N)=O)CCCC3)cc1OC` , what is its reported residual activity?
Key: 99.9

Exercise: Report residual activity for `O=C1c2ccccc2-c2nc3nnnn3nc21` please.
Key: 94.1

Exercise: Consider the molecule shown here: `Cc1cccc(-c2nc(C(C)(C)C)[nH]c2-c2ccc3c(c2)OCO3)n1` What is its recorded residual activity?
Key: 106

Exercise: Entry under review: `N#Cc1c[nH]c2c[nH]/c(=N\Cc3cccnc3)cc2/c1=N\c1ccc(F)c(Cl)c1` . Reported residual activity?
Key: 87.4
